These measurements were taken from patent US7452680B2.

target: hMCT1-rCD147 fusion protein (Homo sapiens, UniProt P53985, D490E); assay: Competitive binding and uptake assay, inhibition of 14C-lactate uptake (FIG. 13); assay type: cell-based; design: rCD147 (rat CD147/basigin) fusion partner; expressed in transfected cells; conditions: cells expressing the fusion protein vs cells endogenously expressing hMCT1
Sequence (P53985 with tags, fused parts or gaps D490E): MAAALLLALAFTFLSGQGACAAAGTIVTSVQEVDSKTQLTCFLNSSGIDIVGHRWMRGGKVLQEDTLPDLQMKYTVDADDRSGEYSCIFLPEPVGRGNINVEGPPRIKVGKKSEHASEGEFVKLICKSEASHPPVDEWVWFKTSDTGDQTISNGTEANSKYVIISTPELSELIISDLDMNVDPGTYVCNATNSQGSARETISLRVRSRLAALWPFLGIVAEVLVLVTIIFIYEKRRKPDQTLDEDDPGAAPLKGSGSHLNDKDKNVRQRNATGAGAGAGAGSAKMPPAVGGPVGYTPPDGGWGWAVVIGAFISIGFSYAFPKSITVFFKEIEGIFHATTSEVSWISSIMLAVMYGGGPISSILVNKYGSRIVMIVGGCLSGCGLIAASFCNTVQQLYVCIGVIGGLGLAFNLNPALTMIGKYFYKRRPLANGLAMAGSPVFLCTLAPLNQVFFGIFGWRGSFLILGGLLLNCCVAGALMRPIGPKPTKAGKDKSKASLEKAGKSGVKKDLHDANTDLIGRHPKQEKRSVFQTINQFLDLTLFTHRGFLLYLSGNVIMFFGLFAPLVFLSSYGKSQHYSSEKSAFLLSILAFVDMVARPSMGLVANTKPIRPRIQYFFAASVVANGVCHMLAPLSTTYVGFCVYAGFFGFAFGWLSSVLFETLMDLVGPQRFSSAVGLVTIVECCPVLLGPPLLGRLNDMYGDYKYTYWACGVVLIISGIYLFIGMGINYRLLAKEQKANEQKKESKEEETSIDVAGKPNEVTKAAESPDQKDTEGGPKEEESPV
property: affinity for the MCT1-rCD147 fusion protein compared with hMCT1 alone

Example cases with answers are listed next.
Qu. // affinity for the MCT1-rCD147 fusion protein compared with hMCT1 alone lookup, key: CC(C)C[C@H](O)C(=O)O [Compound 2, L-alpha-hydroxy-isocaproic acid]
Ans. higher affinity

Qu. Entry "O=C(O)c1cccnc1" : reported affinity for the MCT1-rCD147 fusion protein compared with hMCT1 alone = ?
Ans. higher affinity

Qu. Item under review: "O=C(O)c1ccccc1" . Reported affinity for the MCT1-rCD147 fusion protein compared with hMCT1 alone?
Ans. higher affinity

Qu. Item "O=C(O)Cc1ccccc1" has what recorded affinity for the MCT1-rCD147 fusion protein compared with hMCT1 alone?
Ans. higher affinity

***
Qu. Dear colleague, I am looking for the recorded affinity for the MCT1-rCD147 fusion protein compared with hMCT1 alone of the following compound: O=C(O)C(=O)c1cccs1 [2-Thiophene glyoxylate]
Ans. higher affinity

Qu. Reported affinity for the MCT1-rCD147 fusion protein compared with hMCT1 alone, compound CC(O)C(=O)O (stereo not drawn) : ____
Ans. higher affinity
